- Protocol details: In vivo pharmacokinetics in plasma after oral gavage (PO) in male CD-1 mice
- Run parameters: mouse; single PO dose 5 mg/kg, male CD-1 mice, plasma
Measurement label: AUC(0-t) (ng·h/mL)

- Compound: "CC(Oc1ccc(C(C)(C)c2cc(Cl)c(OCCCl)c(Cl)c2)cc1)c1ocnc1S(C)(=O)=O (stereo not drawn)"
  Measurement label: "AUC(0-t)"
  Display unit: "ng·h/mL"
  Numeric readout: 2420

[1] CC(C)(c1ccc(OCc2nc(S(C)(=O)=O)cs2)cc1)c1cc(Cl)c(OCCCl)c(C#N)c1
[2] CC(C)(c1ccc(OCc2ocnc2S(C)(=O)=O)cc1)c1cc(Cl)c(OCCCl)c(Cl)c1
[Q] Quick one: lower AUC(0-t), 1 or 2 ? // respond with label for picked entry
[A] 2

* * *

This listing pairs compounds with measured IC50.
- Tested on: androgen receptor (AR) (Homo sapiens, UniProt P10275, T878A)
- Construct: LNCaP cells were transiently transfected with the PSA (6.1 kb)-luciferase reporter for 24 h; endogenous in cells; host or cells: LNCaP
- Sequence (P10275 whole entry T878A): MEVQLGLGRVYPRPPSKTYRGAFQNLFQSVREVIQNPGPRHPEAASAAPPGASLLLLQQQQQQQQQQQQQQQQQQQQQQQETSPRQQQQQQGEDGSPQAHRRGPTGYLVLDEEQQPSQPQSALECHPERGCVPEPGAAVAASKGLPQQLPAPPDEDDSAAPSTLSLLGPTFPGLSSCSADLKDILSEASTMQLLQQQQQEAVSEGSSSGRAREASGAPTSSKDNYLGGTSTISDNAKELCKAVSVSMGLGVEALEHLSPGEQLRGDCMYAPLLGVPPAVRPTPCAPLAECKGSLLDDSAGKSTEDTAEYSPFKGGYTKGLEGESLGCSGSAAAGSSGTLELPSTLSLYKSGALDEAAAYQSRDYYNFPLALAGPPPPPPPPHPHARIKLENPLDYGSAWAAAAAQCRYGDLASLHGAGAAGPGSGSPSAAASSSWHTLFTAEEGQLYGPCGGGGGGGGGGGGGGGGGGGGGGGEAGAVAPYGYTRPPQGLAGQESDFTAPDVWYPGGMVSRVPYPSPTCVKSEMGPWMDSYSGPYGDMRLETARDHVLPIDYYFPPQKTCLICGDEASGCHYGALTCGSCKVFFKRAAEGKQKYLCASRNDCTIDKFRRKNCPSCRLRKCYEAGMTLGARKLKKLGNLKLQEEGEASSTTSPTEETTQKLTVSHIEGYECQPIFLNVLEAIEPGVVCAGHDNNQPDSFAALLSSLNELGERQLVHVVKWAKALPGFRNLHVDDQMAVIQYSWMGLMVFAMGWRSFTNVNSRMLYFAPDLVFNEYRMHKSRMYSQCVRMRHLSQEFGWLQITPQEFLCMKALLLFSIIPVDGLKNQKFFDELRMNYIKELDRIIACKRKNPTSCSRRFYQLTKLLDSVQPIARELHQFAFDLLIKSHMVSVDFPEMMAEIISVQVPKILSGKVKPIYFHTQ
- Protocol details: Androgen-induced PSA (6.1 kb)-luciferase reporter assay in LNCaP cells
- Type: cell-based
- Run parameters: LNCaP cells transfected with PSA (6.1 kb)-luciferase reporter, R1881 1 nM, 24 h; read-out: PSA-Luc IC50 Range

- Compound: "CC(C)(c1cc(Cl)c(OCCCl)c(Cl)c1)c1ccc(OCc2ocnc2S(C)(=O)=O)c(C#N)c1"
  IC50: "500 to 2000 nM"
- Compound: "CC(C)(c1ccc(OCc2ccnc(NS(C)(=O)=O)c2)cc1)c1cc(Cl)c(OCCCl)c(C#N)c1"
  IC50: "< 500 nM"

Now take the following compound into account.
[Q] Answer briefly: IC50 recorded on androgen receptor (AR) (Homo sapiens, UniProt P10275, T878A) for CC(C)(c1ccc(OCc2ocnc2S(C)(=O)=O)cc1)c1cc(Cl)c(OCC(O)CCl)c(Cl)c1 (stereo not drawn)
[A] 500 to 2000 nM

* * *

Listed below: microsomal CLint at 1 μM values for each entry.
- Protocol details: Microsomal stability assay, mouse liver microsomes
- Assay type: in vitro ADME
- Run parameters: mouse, liver microsomes, pH 7.4, mouse liver microsomes, 1 μM compound, 0.5 mg/mL protein, 37° C.; read-out: MLM +30/− NADPH: Clint (μL/min/mg protein)

- Molecule smiles: "CC(C)(c1ccc(OCc2ncoc2S(C)(=O)=O)cc1)c1cc(Cl)c(OCCCl)c(C#N)c1"
  Result: "≥ 48 µL/min/mg"

[Q] Hello, please tell me recorded microsomal CLint at 1 μM for this one: `CC(C)(c1cnc(NCc2ocnc2S(C)(=O)=O)nc1)c1cc(Cl)c(OCCCl)c(Cl)c1`
[A] ≥ 48 µL/min/mg

[Q] Find the measured microsomal CLint at 1 μM of `Cc1cnc(NS(C)(=O)=O)nc1COc1ccc(C(C)(C)c2cc(Cl)c(OCCCl)c(C#N)c2)cc1` and report it.
[A] 12 to 48 µL/min/mg

* * *

- Protocol details: Microsomal stability assay, human liver microsomes
- Format: in vitro ADME
- Run parameters: pH 7.4, 1 μM compound, 0.5 mg/mL protein, 37° C., read-out: HLM +/− NADPH: Clint (μL/min/mg protein)
- Method: Microsomal stability assay is a widely used in vitro model to characterize the metabolic conversion by phase I enzymes, such as cytochrome P450 (CYP) enzymes. […] Metabolic stability of testing compound can be evaluated using human, rat, mouse, or other animal liver or intestine microsomes to predict intrinsic clearance. […] All samples were analyzed on LC/MS/MS using an AB Sciex API 4000 instrument, coupled to a Shimadzu LC-20AD LC Pump system. […]
Reported microsomal CLint at 1 μM values follow for various compounds

Consider the worked cases shown below.
- Compound: "CC(C)(c1cc(Cl)c(OCCCl)c(Cl)c1)c1ccc(OCc2ocnc2S(C)(=O)=O)c(C#N)c1"
  microsomal CLint at 1 μM: "12 to 48 µL/min/mg"
- Compound: "CC(C)(c1ccc(OCc2coc(NS(C)(=O)=O)n2)cc1)c1cc(Cl)c(OCCCl)c(C#N)c1"
  microsomal CLint at 1 μM: "12 to 48 µL/min/mg"
- Compound: "CC(C)(c1ccc(OCc2nnc(O)o2)cc1)c1cc(Cl)c(OCCCCl)c(Cl)c1"
  microsomal CLint at 1 μM: "≥ 48 µL/min/mg"

[Q] Using the record for CC(Oc1ccc(C(C)(C)c2cc(Cl)c(OCCCl)c(C#N)c2)cc1)c1ccnc(NS(C)(=O)=O)n1 (stereo not shown) , state its measured microsomal CLint at 1 μM.
[A] < 12 µL/min/mg

[Q] Provide one value: measured microsomal CLint at 1 μM of `CC(C)S(=O)(=O)c1nc(COc2ccc(C(C)(C)c3cc(Cl)c(OCCCl)c(C#N)c3)cc2)co1`
[A] < 12 µL/min/mg

[Q] Identify microsomal CLint at 1 μM associated with the compound `CC(C)(c1ccc(OCc2ncc(S(C)(=O)=O)[nH]2)cc1)c1cc(Cl)c(OCCCl)c(C#N)c1`
[A] 12 to 48 µL/min/mg

[Q] Answer with the recorded microsomal CLint at 1 μM for the compound listed here: `CC(C)(c1ccc(NC(=O)c2coc(NS(C)(=O)=O)n2)cc1)c1cc(Cl)c(OCCCl)c(Cl)c1`
[A] 12 to 48 µL/min/mg
